system: FLT3(K663Q); conditions: Compound Concentration (nM):1000;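 also: KINOMEscan scanMAX binding as percent activity remaining versus control; lower means stronger binding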
measured metric: Percent Control (%)

- molecule: "COC(=O)Nc1nc2ccc(Oc3ccc(NC(=O)Nc4cc(C(F)(F)F)ccc4F)cc3)cc2s1.Cl [GW693917A]"
  target system: "FLT3(K663Q)"
  unit: "%"
  experimental result: 1
- molecule: "COc1cc(C)c(N(C)C(=O)CN(C)C)cc1Nc1nc(Nc2cccc(F)c2C(N)=O)c2cc[nH]c2n1 [GSK2219385]"
  target system: "FLT3(K663Q)"
  unit: "%"
  experimental result: 100
- molecule: "CN1CCN(C(=O)c2ccc(NC(=O)Nc3ccc(N(C)c4ccnc(Nc5ccc(CS(C)(=O)=O)cc5)n4)cc3)cc2)CC1.Cl [GW830263A]"
  target system: "FLT3(K663Q)"
  unit: "%"
  experimental result: 0
- molecule: "COc1ccc(COc2ccc(Cc3cnc(N)nc3N)cc2OC)cc1 [GW632580X]"
  target system: "FLT3(K663Q)"
  unit: "%"
  experimental result: 79

* * *

test system: KIT(D816H); conditions: Compound Concentration (nM):1000
Recorded Percent Control for the following compounds
measured metric: Percent Control (%)

- compound: "COc1cccc(-n2ncc3c(N/N=C/c4ccncc4)ncnc32)c1 [GW784752X]"
  target system: "KIT(D816H)"
  measured metric: "Percent Control"
  experimental result: 46
- compound: "CC1=C(C(=O)Nc2ccc3[nH]ncc3c2)C(c2ccc(Cl)c(Cl)c2)CC(=O)N1 (centres unmarked) [GSK299115A]"
  target system: "KIT(D816H)"
  measured metric: "Percent Control"
  experimental result: 78
- compound: "C/C(Nc1ccc(S(N)(=O)=O)cc1)=C1/C(=O)Nc2ccccc21 [GW335962X]"
  target system: "KIT(D816H)"
  measured metric: "Percent Control"
  experimental result: 73
- compound: "COc1ccc2c(-c3ccnc(Nc4cccc(OC(F)(F)F)c4)n3)cnn2n1 [GW810372X]"
  target system: "KIT(D816H)"
  measured metric: "Percent Control"
  experimental result: 77
- compound: "O=C(Nc1n[nH]c2nc(-c3ccc(O)cc3)c(Br)cc12)C1CC1"
  target system: "KIT(D816H)"
  measured metric: "Percent Control"
  experimental result: 100

* * *

system: RPS6KA5(Kin.Dom.2-C-terminal); settings: Compound Concentration (nM):1000
Recorded Percent Control for the following compounds
measured metric: Percent Control (%)

- compound: "COc1cc(N2CCN(C(C)C)CC2)ccc1Nc1nc(Nc2ccc(F)cc2C(=O)NC[C@@H](O)CO)c2cc[nH]c2n1 [GSK1392956A]"
  unit: "%"
  experimental result: 47
- compound: "Nc1ncnc2occ(-c3ccc(NC(=O)Nc4cc(C(F)(F)F)ccc4F)cc3)c12 [GW770249X]"
  unit: "%"
  experimental result: 100
- compound: "COC(=O)Nc1nc2ccc(Oc3ccc(NC(=O)Nc4cc(C(F)(F)F)ccc4F)cc3)cc2s1.Cl [GW693917A]"
  unit: "%"
  experimental result: 100
- compound: "Cl.O=C(Nc1ccc(Oc2ccc3[nH]c(NC(=O)c4ccccc4)nc3c2)cc1)Nc1cc(C(F)(F)F)ccc1F [GW709042A]"
  unit: "%"
  experimental result: 88

* * *

Recorded Percent Control for the following compounds
system: EPHB3; conditions: Compound Concentration (nM):1000
measured metric: Percent Control (%)

- compound: "CN(C)c1cc2c(Nc3ccc4c(cnn4Cc4ccccc4)c3)ncnc2cn1 [GW282974X]"
  experimental result: 75
- compound: "CC(C)COC(=O)c1ccc2c(c1)/C(=C/Nc1ccc(S(N)(=O)=O)cc1)C(=O)N2 [GW416981X]"
  experimental result: 100
- compound: "C[C@@H](Oc1cc(-n2cnc3ccc(OC4CCN(C)CC4)cc32)sc1C(N)=O)c1ccccc1Cl [GSK579289A]"
  experimental result: 95
- compound: "Cl.O=C(O[C@H]1CN[C@H](C#Cc2cc3ncnc(Nc4ccc5c(cnn5Cc5ccccc5)c4)c3s2)C1)N1CCOCC1 [GSK200398A]"
  experimental result: 100
